testedTarget: UniProtKB P00742
Sequence (P00742 235-488 limits assumed): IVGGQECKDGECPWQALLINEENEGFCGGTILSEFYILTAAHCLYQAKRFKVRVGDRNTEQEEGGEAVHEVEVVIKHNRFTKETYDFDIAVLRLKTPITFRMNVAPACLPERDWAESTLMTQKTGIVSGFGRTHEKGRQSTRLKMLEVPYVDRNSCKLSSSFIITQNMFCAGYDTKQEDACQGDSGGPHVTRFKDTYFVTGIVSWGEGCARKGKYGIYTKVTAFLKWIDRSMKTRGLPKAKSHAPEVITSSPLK
Sequence (P00742 41-179 limits assumed): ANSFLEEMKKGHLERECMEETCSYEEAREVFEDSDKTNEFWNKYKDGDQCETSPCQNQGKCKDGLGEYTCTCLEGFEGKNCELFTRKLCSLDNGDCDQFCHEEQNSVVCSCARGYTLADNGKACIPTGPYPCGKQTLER
assayProtocol: Xa Assay
conditionContext: % inhibition at 30 µM
metricName: IC50 or % Inhibition Factor Xa (30 µM) (%@30)
Answers are plain numbers, in %@30.

N=C(N)c1ccc(CNC(=O)Cn2c(-c3cccc(N)c3)cnc(NC3CCC3)c2=O)cc1 [compound 92] = 18

Kindly note the recorded IC50 or % Inhibition Factor Xa (30 µM) for N=C(N)c1ccc(CNC(=O)Cn2c(-c3cccc(Cl)c3)c(Cl)nc(NCc3ccccc3)c2=O)cc1 [Example 23] , which is 38

====

testedTarget: TF-VIIa (Homo sapiens, UniProt P08709)
Construct: 2nM recombinant human factor VIIa; purchased American Diagnostica, Greenwich CT; host or cells: soluble TF made in house in E. coli
Sequence (P08709 213-466 limits assumed): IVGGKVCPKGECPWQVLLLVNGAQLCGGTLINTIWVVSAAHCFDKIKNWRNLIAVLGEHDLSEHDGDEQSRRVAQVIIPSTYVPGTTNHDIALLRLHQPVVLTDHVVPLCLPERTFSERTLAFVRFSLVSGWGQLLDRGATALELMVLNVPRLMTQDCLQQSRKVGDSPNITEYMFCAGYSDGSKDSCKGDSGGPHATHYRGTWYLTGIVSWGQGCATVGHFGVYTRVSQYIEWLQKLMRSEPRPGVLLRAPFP
Sequence (P08709 61-212 limits assumed): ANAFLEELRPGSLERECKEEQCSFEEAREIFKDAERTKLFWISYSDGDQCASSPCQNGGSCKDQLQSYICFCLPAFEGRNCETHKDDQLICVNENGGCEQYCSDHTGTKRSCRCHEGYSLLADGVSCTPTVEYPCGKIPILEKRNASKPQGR
Sequence (P13726 33-251 partner limits assumed): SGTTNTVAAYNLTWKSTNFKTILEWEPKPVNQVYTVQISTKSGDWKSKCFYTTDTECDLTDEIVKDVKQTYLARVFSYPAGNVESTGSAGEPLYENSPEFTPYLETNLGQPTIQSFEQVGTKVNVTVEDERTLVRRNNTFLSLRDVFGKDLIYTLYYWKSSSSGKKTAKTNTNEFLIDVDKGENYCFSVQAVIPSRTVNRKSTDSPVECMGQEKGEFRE
assayProtocol: TF-VIIa Assay
Format: biochemical
conditionContext: read-out: IC50 or % Inhibition TF-VIIa (30 µM); cells given as a plain number (IC50)
Checkbox rule: IC50 lower than 3 µM = true; IC50 not lower than 3 µM = false.

Reference set, count: 3
CN1CCCC1CCNc1nc(Cl)c(-c2ccccc2)n(CC(=O)NCc2ccc(C(=N)N)cc2)c1=O (centres unmarked) = false
N=C(N)c1ccc(CNC(=O)Cn2c(-c3ccccc3)c(Cl)nc(NCc3cc(C(F)(F)F)cc(C(F)(F)F)c3)c2=O)cc1 = false
COc1cccc(-c2c(Cl)nc(NCc3ccccc3)c(=O)n2CC(=O)NCc2ccc(C(=N)N)cc2)c1 = false

In: Lab note: IC50 threshold 3 µM. Does this molecule come in strictly under it? N=C(N)c1ccc(CNC(=O)Cn2c(-c3c(Cl)cccc3Cl)c(Cl)nc(NCc3ccccc3)c2=O)cc1
Out: true
